System: Cat1 S3 fur extract proteolytic activity
Experiment: Inhibition of the proteolytic activity in animal fur by proteinase inhibitors
Format: biochemical, cat
Settings: Cat1 S3, 10 μM inhibitor, substrate 1 Z-Gly-Gly-Arg-NHMec
Where a SMILES comes first, the peptide text is derived from it. The star is where a group is joined. CH2Cl = ClC*
Here the recorded v1 (rate after inhibitor) is given for each entry.
Write down the numeric answer in nM/min and omit the unit.

Request: Please look up its v1 (rate after inhibitor): NC(N)=NCCC[C@H](NC(=O)CNC(=O)[C@@H](N)CCC(=O)O)C(=O)CCl [H-Glu-Gly-Arg-chloromethane] (H-Glu-Gly-Arg-CH2Cl)
Result: 0.143

Request: Please look up its v1 (rate after inhibitor): `CC(=O)N[C@@H](CC(C)C)C(=O)N[C@@H](CC(C)C)C(=O)N[C@H](C=O)CCCNC(=N)N`
Result: 0

Request: Please look up its v1 (rate after inhibitor): `O=c1oc(Cl)c(Cl)c2ccccc12`
Result: 1.837

Request: Please look up its v1 (rate after inhibitor): CC(C)C[C@H](NC(=O)[C@H]1O[C@@H]1C(=O)O)C(=O)NCCCCN=C(N)N (relative stereo)
Result: 2.005

Request: Please look up its v1 (rate after inhibitor): `N=C(N)SCCCOc1oc(=O)c2cc(N)ccc2c1Cl`
Result: 0.002
